- testDescription: High-throughput drug toxicity screening in the BPDCN cell line Gen2.2 (AID 1224824);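 further: cells exposed to compounds for 48 h before reading; 100% = DMSO and 0% = bortezomib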
- measurementSetup: Gen2.2 BPDCN cells; at 45.8 µM (top of the series) unless noted
Recorded cell viability, % of control (lower = more cytotoxic) by entry
measuredParameter: cell viability, % of control (lower = more cytotoxic) (%)

molSmiles	observedValue
CC(=O)ON=C1C(c2c(O)[nH]c3cc(Br)ccc23)=Nc2ccccc21	129
O=C(Nc1ccc(Oc2ccnc3[nH]ccc23)c(F)c1)c1cccn(-c2ccc(F)cc2)c1=O	83
C=C1C(=CC=C2CCC[C@]3(C)[C@@H]([C@H](C)CCCC(C)(C)O)CC[C@@H]23)C[C@@H](O)C[C@@H]1O	20.5
COc1cccc2c1C(=O)c1c(O)c3c(c(O)c1C2=O)C[C@@](O)(C(=O)CO)C[C@H]3O[C@H]1C[C@H](N)[C@H](O)[C@H](C)O1	6.45
CCCCCCCCCCCCCCCC(=O)OC[C@@H](NC(=O)C(Cl)Cl)[C@H](O)c1ccc([N+](=O)[O-])cc1	132
CNC(=O)Nc1ccc(-c2nc(N3CC4CCC(C3)O4)c3cnn(C4CCC5(CC4)OCCO5)c3n2)cc1	17.6
COC1=C2C[C@@H](C)C[C@H](OC)[C@@H](O)[C@@H](C)C=C(C)[C@H](OC(N)=O)[C@@H](OC)C=CC=C(C)C(=O)NC(=CC1=O)C2=O	3.44

----------
- testDescription: qHTS Screen of the MIPE 4.0 Collection Against Ewings Sarcoma (TC71) (AID 1259253); further: nearly all actives have a fitted effect of over 40% in size
- measurementSetup: TC71 Ewing sarcoma viability, CellTiter-Glo, 48 h; series mostly up to 45.8 µM
Records with an inconclusive call do not appear. Active and inactive are the calls of the source. Calls follow the shape of the dose curve; as a rule, active = well fitted inhibition curve with a large enough effect; inconclusive = small, poorly fitted or top-dose-only effect; inactive = no such curve, though single readings can be large or run the other way. Residues, ends and D or L forms follow the SMILES beside them. *: point of attachment. Cbz = O=C(OCc1ccccc1)*
Outcome codes: true (1) for active, false (0) for inactive

compound	classAssignment
C=C(C)[C@@H]1CC[C@]2(C(=O)O)CC[C@]3(C)[C@H](CC[C@@H]4[C@@]5(C)CC[C@H](O)C(C)(C)[C@@H]5CC[C@]43C)[C@@H]12	false (0)
COC(=O)[C@@H]1CC2=CC(=O)CC[C@]2(C)[C@@]23O[C@@H]2C[C@@]2(C)[C@H](CC[C@@]24CCC(=O)O4)[C@@H]13	false (0)
CC[C@H]1OC(=O)[C@H](C)[C@@H](O[C@H]2C[C@@](C)(OC)[C@@H](O)[C@H](C)O2)[C@H](C)[C@@H](O[C@@H]2O[C@@H](C)C[C@H](N(C)C)[C@@H]2O)[C@](C)(O)C[C@@H](C)C(=O)[C@H](C)[C@@H](O)[C@]1(C)O	false (0)
CN1CCc2c(c3ccccc3n2Cc2ccc(C(=O)NO)cc2)C1	true (1)
C=CC[C@@H]1C=C(C)C[C@H](C)C[C@H](OC)[C@H]2O[C@@](O)(C(=O)C(=O)N3CCCC[C@H]3C(=O)O[C@H](C(C)=C[C@@H]3CC[C@H](O)[C@H](OC)C3)[C@@H](C)[C@@H](O)CC1=O)[C@@H](C)C[C@@H]2OC	true (1)
CCN(C(=O)c1c(O)c2c(Cl)cccc2n(C)c1=O)c1ccccc1	false (0)
CC(C)C[C@@H](C=O)NC(=O)[C@H](CC(C)C)NC(=O)[C@H](CC(C)C)NC(=O)OCc1ccccc1 (Cbz-Leu-Leu-Leu-aldehyde)	true (1)
C[C@H](CCC(=O)O)[C@H]1CC[C@H]2[C@@H]3[C@H](O)C[C@@H]4C[C@H](O)CC[C@]4(C)[C@@H]3CC[C@]12C	false (0)
CC(C)c1cnn2c(NCc3ccccc3)cc(NCCCCCCN)nc12	true (1)
CCOc1cc2ncc(C#N)c(Nc3ccc(OCc4ccccn4)c(Cl)c3)c2cc1NC(=O)C=CCN(C)C	true (1)
COc1cc([C@@H]2c3cc4c(cc3[C@H](O)[C@H]3COC(=O)[C@@H]23)OCO4)cc(OC)c1OC	true (1)
CCCCC(=O)O[C@]1(C(=O)CO)[C@@H](C)C[C@H]2[C@@H]3CCC4=CC(=O)C=C[C@]4(C)[C@@]3(F)[C@@H](O)C[C@@]21C	false (0)
C[N+]1(C)[C@@H]2C[C@@H](OC(=O)C(O)(c3cccs3)c3cccs3)C[C@H]1[C@@H]1O[C@@H]12	false (0)
NC(=O)Nc1cc(-c2ccc(CN3CCOCC3)cc2)sc1C(N)=O	true (1)
